Tested on: T1, GFP-9S library array, motif 4 ND N98T;D124F (synthetic construct, N98T;D124F)
T1 chain: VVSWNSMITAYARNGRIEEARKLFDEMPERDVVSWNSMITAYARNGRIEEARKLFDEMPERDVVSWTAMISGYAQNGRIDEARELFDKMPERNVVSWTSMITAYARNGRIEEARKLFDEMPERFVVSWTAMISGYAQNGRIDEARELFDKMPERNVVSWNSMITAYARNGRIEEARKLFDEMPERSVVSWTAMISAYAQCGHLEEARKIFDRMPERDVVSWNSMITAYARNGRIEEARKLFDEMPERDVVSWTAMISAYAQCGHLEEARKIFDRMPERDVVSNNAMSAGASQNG
Test name: high-throughput RNA pulldown from lysate on Ni-NTA beads; HRP: 50 mM Tris pH 8, 150 mM NaCl, 1 mM beta-mercaptoethanol, 50 ug/ml BSA, 3 ug/ml yeast RNA, 0.5% heparin; ITC and FP: Tris pH 8, 200 mM KCl, 5% glycerol; MST: 50 mM Tris pH 8, 200 mM NaCl, 1 mM DTT, BSA, heparin, 0.05% Tween 20
Experimental setup: tags: N-terminal His-eGFP; label: 5' Cy5
Field: pKd. Provide a value for each of the binders that follow.
Answers are plain numbers, as −log10 of the molar value.

AUUACACGUGA (ssRNA) [Cy5-rpoA] :: 6.62

Consider the additional binder presented here.
Would you mind telling me what pKd value was observed for AUUAGACGUGA (ssRNA) [Cy5-rpoA-G] ? 6.79

Where do these numbers come from? They come from paper PMC8809517.
